# Tested on: L1210
# Procedure Summary: Antitumor activity L1210 cell line as cell membrane transport activity
# Format: functional, cell-based
# Measurement Conditions: Mus musculus
Measured Endpoint: Efflux Ki (min⁻¹)

- CN(Cc1cnc2nc(N)nc(N)c2n1)c1ccc(C(=O)NC(CNC(=O)c2ccc(Cl)cc2)C(=O)O)cc1 (stereo not drawn): 0.255
- CN(Cc1cnc2nc(N)nc(N)c2n1)c1ccc(C(=O)NC(CNC(=O)NC(CCC(=O)O)C(=O)O)C(=O)O)cc1 (stereo not drawn): 0.234
- CN(Cc1cnc2nc(N)nc(N)c2n1)c1ccc(C(=O)N[C@@H](CCC(=O)O)C(=O)O)cc1 [METHOTREXATE]: 0.203

----------
# System: L1210
# Procedure Summary: Inhibition of L1210 cell growth in mice.
# Assay type: functional, cell-based
# Measurement Conditions: Mus musculus
// IC50 lookup, one value per entry
Measured Endpoint: IC50 (nM)

• CN(Cc1cnc2nc(N)nc(N)c2n1)c1ccc(C(=O)NC(CN)C(=O)O)cc1 (stereo unspecified) = 1030
• CN(Cc1cnc2nc(N)nc(N)c2n1)c1ccc(C(=O)NC(CNC(=O)c2ccc(Cl)cc2)C(=O)O)cc1 (stereo unspecified) = 11.9
• CN(Cc1cnc2nc(N)nc(N)c2n1)c1ccc(C(=O)NC(CNC(N)=O)C(=O)O)cc1 (stereo unspecified) = 9.4
• CN(Cc1cnc2nc(N)nc(N)c2n1)c1ccc(C(=O)NC(CCCNC(=O)OC(C)(C)C)C(=O)O)cc1 (stereo unspecified) = 97
• CN(Cc1cnc2nc(N)nc(N)c2n1)c1ccc(C(=O)NC(CCNC(=O)OC(C)(C)C)C(=O)O)cc1 (stereo unspecified) = 333
• CCOC(=O)C(CNC(=O)N(C)N=O)NC(=O)c1ccc(N(C)Cc2cnc3nc(N)nc(N)c3n2)cc1 (stereo unspecified) = 3650
• CN(Cc1cnc2nc(N)nc(N)c2n1)c1ccc(C(=O)NC(CNC(=O)NC(CCC(=O)O)C(=O)O)C(=O)O)cc1 (stereo unspecified) = 200
• CNC(=O)NCC(NC(=O)c1ccc(N(C)Cc2cnc3nc(N)nc(N)c3n2)cc1)C(=O)O (stereo unspecified) = 34.3
• CN(Cc1cnc2nc(N)nc(N)c2n1)c1ccc(C(=O)NC(CCNC(N)=O)C(=O)O)cc1 (stereo unspecified) = 21.8
• CN(Cc1cnc2nc(N)nc(N)c2n1)c1ccc(C(=O)NC(CCN)C(=O)O)cc1 (stereo unspecified) = 1360
• CN(Cc1cnc2nc(N)nc(N)c2n1)c1ccc(C(=O)N[C@@H](CCC(=O)O)C(=O)O)cc1 [METHOTREXATE] = 3.28
• CN(Cc1cnc2nc(N)nc(N)c2n1)c1ccc(C(=O)NC(CCCNC(=O)c2ccc(Cl)cc2)C(=O)O)cc1 (stereo unspecified) = 1.71
• CN(Cc1cnc2nc(N)nc(N)c2n1)c1ccc(C(=O)NC(CCNC(=O)c2ccc(Cl)cc2)C(=O)O)cc1 (stereo unspecified) = 27.3
• CN(Cc1cnc2nc(N)nc(N)c2n1)c1ccc(C(=O)NC(CCCN)C(=O)O)cc1 (stereo unspecified) = 507
• CCOC(=O)C(CNC(=O)N(CCCl)N=O)NC(=O)c1ccc(N(C)Cc2cnc3nc(N)nc(N)c3n2)cc1 (stereo unspecified) = 2900
• CN(Cc1cnc2nc(N)nc(N)c2n1)c1ccc(C(=O)NC(CNC(=O)OC(C)(C)C)C(=O)O)cc1 (stereo unspecified) = 440
